Catalogue of self-cleavage kobs at 40 uM GlcN6P values
B1: glmS ribozyme (parent)
chain: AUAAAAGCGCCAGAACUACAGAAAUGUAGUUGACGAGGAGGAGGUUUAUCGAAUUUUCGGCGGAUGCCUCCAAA

- Variants of: B1
- test_name: self-cleavage kobs at 40 uM GlcN6P; higher = faster cleavage; RNA array
- condition_set: with glucosamine-6-phosphate
This sample holds only a part of the variants without activity.
assay_endpoint: self-cleavage kobs at 40 uM GlcN6P (s⁻¹)

1) AUAAAAGCGCCAGAACUACAGAAAUGUAAUUGACGAGGAGGAGGUUUAUGGAUUUUUCGGCGGAUUCCUCCAAA	5.27e-05
2) AUAAAAGCGCCAGAACUACAGAAAUGUAGGUGACGAGGAGGGGGUUUAUCGAAUGUUCGGCGGAUGCCUCCAAA	0.000185
3) AUAAAAGCGCCAGGUCUACAGAAAUGUAGUUGACGAGGAGGAGGUUUAUCGAAUUUUCGGCGGAUGGCUCCAAA	5.43e-05
4) AUAAAAGCGCCAGAACUACAGAAAUGUAGUAGACGAGGAGGGGGUUUAUCGAAUUUUCGGCGGAUGCCUCCAAA	0.000495
5) AUAAAAGCGCCAGAACUACAGAAAUGUAGUUGACGAGGGGGAGGUUUAUCGAAUUUUCGGCGGAUGCCUCCAAA	0.00154
6) AUAAAAGCGCCAGAACUACAGAAAUGUAGUUGACGAGGAGGAGGUUUAUCGAAUGUUCGGCGGAGGCCUCCAAA	5.26e-05
7) AUAAAAGCGCCAGUACUACAGAAAUGUAGUUGACGAGGAGGAGGUUUAUCGAGUUUUCGGCGGAUGCCUCCAAA	0.000202
8) AUAAAAGCGCCAGAACUACAGAAAUGUAGUUGACGAGGAGGAGGAUUAUCGAGUGUUCGGCGGAUGCCUCCAAA	0.00113
